Values were extracted from the supplement of paper PMC13207355.

- System: E28 (patient-derived glioblastoma stem cells of classical subtype)
- method summary: surviving fraction (nuclei count normalised to DMSO); higher = more cells surviving (less toxic)
- experimental setup: 3000 nM; exposure time: 72 h
Counter-ions that a name gives are not always drawn.
Decide using surviving fraction: a value greater than or equal to 0.8 is t, a smaller one is f.

A selection of reference data follows.
compound: CN[C@@H]1[C@@H](O)[C@@H](O[C@@H]2[C@@H](O)[C@H](O[C@H]3OC(CN)=CC[C@H]3N)[C@@H](N)C[C@H]2N)OC[C@]1(C)O [Sisomicin sulfate]
target of assay: E28
label value: t
//
compound: O=C1c2c(O)ccc(O)c2C(=O)c2c(NCCNCCO)ccc(NCCNCCO)c21
target of assay: E28
label value: f
//
compound: C=C(C)[C@H]1Cc2c(ccc3c2O[C@@H]2COc4cc(OC)c(OC)cc4[C@@H]2C3=O)O1
target of assay: E28
label value: f
//
compound: COc1cc2c(NC3CCN(C(C)C)CC3)nc(C3CCCCC3)nc2cc1OCCCN1CCCC1
target of assay: E28
label value: t

stdin: Decide: is the reported value of surviving fraction for Clc1ccc(CSC(Cn2ccnc2)c2ccc(Cl)cc2Cl)cc1 (stereo not given) [Sulconazole nitrate] equal to or greater than 0.8?
stdout: t

----------
- System: E28
- method summary: phenotypic distance (Euclidean, principal components) from DMSO controls (arbitrary units); higher = stronger morphological change
- experimental setup: 4.11523 nM; exposure time: 72 h
reported endpoint: phenotypic distance
One number for each entry.

Hi, could you look up phenotypic distance for each item in my list?
1. CC(C)C[C@H](NC(=O)[C@H](Cc1ccccc1)C[C@@H](O)[C@H](Cc1ccccc1)NC(=O)OC(C)(C)C)C(=O)N[C@@H](Cc1ccccc1)C(N)=O [L-685,458]
2. COC(=O)Nc1nc2cc(C(=O)c3cccs3)ccc2[nH]1 [Nocodazole]
3. CC(C)(C)CC(C)(C)c1ccc(OCCOCC[N+](C)(C)Cc2ccccc2)cc1 [Benzethonium chloride]
4. C[C@@H](O)[C@H]1C(=O)N2C(C(=O)O)=C(S[C@@H]3CN[C@H](C(=O)N(C)C)C3)[C@H](C)[C@H]12 [Meropenem]

stdout:
1: 0.565; 2: 2.22; 3: 0.718; 4: 0.51

----------
- Test system: FT3469 (normal neural stem cell line)
- method summary: phenotypic distance (Euclidean, principal components) from DMSO controls (arbitrary units); higher = stronger morphological change
- experimental setup: 333.3 nM; exposure time: 72 h
reported endpoint: phenotypic distance
One number for each entry.

compound: CO[C@H]1C(=O)[C@]2(C)[C@@H](OC)C[C@H]3OC[C@@]3(OC(C)=O)[C@H]2[C@H](OC(=O)c2ccccc2)[C@]2(O)C[C@H](OC(=O)[C@H](O)[C@@H](NC(=O)OC(C)(C)C)c3ccccc3)C(C)=C1C2(C)C
phenotypic distance: 4.39
--
compound: Clc1ccc(COC(Cn2ccnc2)c2ccc(Cl)cc2Cl)c(Cl)c1 (stereo not drawn)
phenotypic distance: 0.587

stdin: Which value of phenotypic distance has been reported for CN[C@@H](C)C(=O)N[C@H](C(=O)N1CCC[C@H]1C(=O)N[C@H]1c2ccccc2C[C@H]1OCC#CC#CCO[C@@H]1Cc2ccccc2[C@@H]1NC(=O)[C@@H]1CCCN1C(=O)[C@@H](NC(=O)[C@H](C)NC)C1CCCCC1)C1CCCCC1 in the records?
stdout: 0.844

----------
- System: E28
- method summary: surviving fraction (nuclei count normalised to DMSO); higher = more cells surviving (less toxic)
- experimental setup: 333.3 nM; exposure time: 72 h
Structures can show the parent of a compound that is named as a salt.
reported endpoint: surviving fraction
Answers are plain numbers.

compound: Cc1ccc2c(c1)C1(CCN(CCc3nc(-c4ccccc4)oc3C)CC1)OC(=O)N2
surviving fraction: 1.11

compound: NC(=O)c1ccccc1 [Benzamide]
surviving fraction: 1.03

compound: CC(=O)[C@]1(O)Cc2c(O)c3c(c(O)c2[C@@H](O[C@H]2C[C@H](N)[C@H](O)[C@H](C)O2)C1)C(=O)c1ccccc1C3=O
surviving fraction: 0.271

compound: O=C1CC[C@@H](C(=O)N2CSC[C@H]2C(=O)O)N1
surviving fraction: 1.04

compound: CC(C)NCC(O)COc1cccc2ccccc12 (centres undefined) [Propranolol hydrochloride]
surviving fraction: 1.03

compound: Clc1ccc(COC(Cn2ccnc2)c2ccc(Cl)cc2Cl)c(Cl)c1 (centres undefined)
surviving fraction: 1.07

Hi, could you look up surviving fraction for each item in my list?
1. CCCCCCCCCCCCCCCC[N+](C)(C)CCN(Cc1ccc(OC)cc1)c1ncccn1 [Thonzonium bromide]
2. Nc1nc(=O)c2nc(CNc3ccc(C(=O)N[C@@H](CCC(=O)O)C(=O)O)cc3)cnc2[nH]1
3. Cc1[nH]nc(C(F)(F)F)c1Cc1sc2c(c1C(=O)N1C[C@](C)(O)CO1)c(=O)n(C)c(=O)n2C(C)C
4. CCOC(=O)C1=C(C)NC(C)=C(C(=O)OCC)C1c1c(F)c(F)c(F)c(F)c1F
5. C[C@H](NC(=O)[C@@H](O)c1cc(F)cc(F)c1)C(=O)N[C@@H]1C(=O)N(C)c2ccccc2-c2ccccc21
6. CNc1ccc2oc(C[C@H]3O[C@@]4(CC[C@H]3C)O[C@H]([C@H](C)C(=O)c3ccc[nH]3)[C@H](C)C[C@H]4C)nc2c1C(=O)O

stdout:
0.814
1.01
0.695
0.945
0.925
0.391

Hi, could you look up surviving fraction for each item in my list?
1. CC(C)(Oc1ccc(C2CC2(Cl)Cl)cc1)C(=O)O (centres undefined) [Ciprofibrate]
2. CC(=O)OC[C@H]1O[C@@H]([S-])[C@H](OC(C)=O)[C@@H](OC(C)=O)[C@@H]1OC(C)=O.CCP(CC)CC.[Au+]
3. COc1cccc2c1C(=O)c1c(O)c3c(c(O)c1C2=O)C[C@@](O)(C(C)=O)C[C@@H]3O[C@H]1C[C@H](N)[C@H](O)[C@H](C)O1 [Daunorubicin hydrochloride]
4. CN1C(=O)OC(C)(C)C1=O
5. CCCCCCCCCCCCCC(=O)O[C@@H]1[C@@H](C)[C@@]2(O)[C@@H](C=C(CO)C[C@]3(O)C(=O)C(C)=C[C@@H]23)[C@@H]2C(C)(C)[C@]12OC(C)=O [Phorbol 12-myristate 13-acetate]
6. CC1(C(=O)O)C2CCC(O2)C1(C)C(=O)O (centres undefined)
7. CC(C)CC(=O)N[C@H](C(=O)N[C@H](C(=O)N[C@@H](CC(C)C)[C@@H](O)CC(=O)N[C@@H](C)C(=O)N[C@@H](CC(C)C)[C@@H](O)CC(=O)O)C(C)C)C(C)C

stdout:
1.12
0.418
0.185
1
0.815
1.11
1.06

Hi, could you look up surviving fraction for each item in my list?
1. COc1cc(OC)c(C(=O)CCCN2CCCC2)c(OC)c1 [Buflomedil hydrochloride]
2. COc1cc2ncnc(Nc3cccc(Br)c3)c2cc1OC
3. CNCCCC12CCC(c3ccccc31)c1ccccc12 [Maprotiline hydrochloride]
4. C[C@@H](O[C@H]1OCCN(Cc2n[nH]c(=O)[nH]2)[C@H]1c1ccc(F)cc1)c1cc(C(F)(F)F)cc(C(F)(F)F)c1 [Aprepitant]
5. CCN1CCN(C(=O)Cc2ccc(Nc3ncc(F)c(Nc4ccc(C(=O)Nc5ccccc5Cl)cc4)n3)cc2)CC1

stdout:
1.1
0.963
1.13
0.935
0.732

----------
So I've got a bunch of molecules here, and I need their surviving fraction values.
- Tested on: E57 (patient-derived glioblastoma stem cells of mesenchymal subtype)
- method summary: surviving fraction (nuclei count normalised to DMSO); higher = more cells surviving (less toxic)
- experimental setup: 111.1 nM; exposure time: 72 h
Counter-ions that a name gives are not always drawn.
Numbers only.

Known surviving fraction results, listed for orientation:
molecule: CC(C)C[C@@H](C(=O)N[C@H](C(=O)OC1CCCC1)c1ccccc1)[C@H](O)C(=O)NO [Tosedostat]
reported endpoint: surviving fraction
value measured: 0.679
//
molecule: COc1cc2c(cc1-c1c(C)noc1C)ncc1[nH]c(=O)n([C@H](C)c3ccccn3)c12
reported endpoint: surviving fraction
value measured: 1.08
//
molecule: COc1cc(OC)c(C(=O)CCCN2CCCC2)c(OC)c1 [Buflomedil hydrochloride]
reported endpoint: surviving fraction
value measured: 1.02
//
molecule: COc1ccc(C(=O)CC(=O)c2ccc(C(C)(C)C)cc2)cc1 [Avobenzone]
reported endpoint: surviving fraction
value measured: 0.975

Moving on to the next molecule.
stdin: Which value of surviving fraction has been reported for CCn1cc(-c2ccnc3[nH]c(-c4cccc(CN(C)C)c4)cc23)c(-c2ccc(NC(=O)N(C)C)cc2)n1 in the records?
stdout: 0.325

----------
- Tested on: E13 (patient-derived glioblastoma stem cells of classical subtype)
- method summary: phenotypic distance (Euclidean, principal components) from DMSO controls (arbitrary units); higher = stronger morphological change
- experimental setup: 37 nM; exposure time: 72 h
Structures can show the parent of a compound that is named as a salt.
Decide using phenotypic distance: a value greater than or equal to 0.8 is true, a smaller one is false.

compound: CC(C)C[C@@H](C(=O)N[C@H](C(=O)OC1CCCC1)c1ccccc1)[C@H](O)C(=O)NO
label value: true
//
compound: CSc1ccc2c(c1)N(CCC1CCCCN1C)c1ccccc1S2 (stereo not drawn) [Thioridazine hydrochloride]
label value: false
//
compound: CC[C@@]1(O)C(=O)OCc2c1cc1n(c2=O)Cc2cc3c(CN(C)C)c(O)ccc3nc2-1
label value: true
//
compound: O=C(CCBr)N1CCN(C(=O)CCBr)CC1
label value: false
//
compound: COc1cc(N)c(Cl)cc1C(=O)NC1CCN(CCCOc2ccc(F)cc2)CC1OC (stereo not drawn) [Cisapride]
label value: false
//
compound: CCOC(=O)OC(C)OC(=O)[C@@H]1N2C(=O)[C@@H](NC(=O)[C@H](N)c3ccccc3)[C@H]2SC1(C)C (stereo partly drawn) [Bacampicillin hydrochloride]
label value: true
//
compound: Cc1cc(CN2CCN(c3c(Br)cnc4nc(-c5ccc(N6CCN(C)CC6)cc5)[nH]c34)CC2)no1
label value: false

Continue with the compound presented below.
stdin: Decide: is the reported value of phenotypic distance for CCOC(=O)C1=C(C)NC(C)=C(C(=O)OCC)C1c1c(F)c(F)c(F)c(F)c1F equal to or greater than 0.8?
stdout: false
